Source listed as patent US20260297042A1.

- target_system: WEE1 (Homo sapiens)
- Construct: purchased Thermo Fisher PR7373A
- Sequence (P30291 whole entry): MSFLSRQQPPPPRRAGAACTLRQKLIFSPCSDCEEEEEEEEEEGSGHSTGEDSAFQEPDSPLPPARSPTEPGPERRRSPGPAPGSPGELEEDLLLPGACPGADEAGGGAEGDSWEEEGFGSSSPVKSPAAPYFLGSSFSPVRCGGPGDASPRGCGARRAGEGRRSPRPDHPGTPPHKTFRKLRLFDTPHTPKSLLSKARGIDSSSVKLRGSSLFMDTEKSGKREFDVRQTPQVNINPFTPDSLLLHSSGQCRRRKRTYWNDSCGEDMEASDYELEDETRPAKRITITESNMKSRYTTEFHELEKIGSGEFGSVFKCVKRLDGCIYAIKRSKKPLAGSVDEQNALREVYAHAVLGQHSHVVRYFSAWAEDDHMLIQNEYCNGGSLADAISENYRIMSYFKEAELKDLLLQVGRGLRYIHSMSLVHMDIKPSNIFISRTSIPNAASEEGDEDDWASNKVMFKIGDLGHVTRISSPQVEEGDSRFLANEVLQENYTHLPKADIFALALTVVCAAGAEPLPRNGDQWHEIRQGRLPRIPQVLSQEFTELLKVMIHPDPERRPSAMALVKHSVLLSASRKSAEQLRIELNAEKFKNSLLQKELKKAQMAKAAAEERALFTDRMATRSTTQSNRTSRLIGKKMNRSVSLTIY
- method_notes: Selectivity versus WEE1 assay (ADP-Glo enzymatic assay)
- Format: biochemical
- details: fold difference in selectivity for PKMYT1 over WEE1; banded; ">N" = at least in this band but could be higher
reported_endpoint: PKMYT1 vs. WEE1 selectivity

A selection of reference data follows.
• Cc1cc(Nc2ccc(F)cc2)nnc1Nc1ncc(C(=O)Nc2c(C)ccc(O)c2C)s1 = X (100-<1000 fold)
• Cc1ccc(O)c(C)c1NC(=O)c1cnc(Nc2cc(C(F)(F)F)cc(Cl)n2)s1 = X (100-<1000 fold)
• Cc1ccc(O)c(C)c1NC(=O)c1cnc(Nc2ccn([C@@H]3CCN(C(=O)Cn4cccn4)C3)n2)s1 = >X (100-<1000 fold)
• Cc1cn(-c2cccc(C(F)(F)F)c2)nc1Nc1ncc(C(=O)Nc2c(C)ccc(O)c2C)s1 = X (100-<1000 fold)
• Cc1ccc(O)c(C)c1NC(=O)c1cnc(Nc2ccn(CCCC(=O)O)n2)s1 = X (100-<1000 fold)
• Cc1ccc(O)c(C)c1NC(=O)c1cnc(Nc2ccn(CC(=O)N3CCC4(CC3)CCN(C(=O)OC(C)(C)C)C4)n2)s1 = X (100-<1000 fold)

Ask: Give its PKMYT1 vs. WEE1 selectivity value. Item: Cc1ccc(C(=O)Nc2ccc(Nc3ncc(C(=O)Nc4c(C)ccc(O)c4C)s3)nc2)c(C)c1
Result: Y (1000-5000 fold)

Ask: Give its PKMYT1 vs. WEE1 selectivity value. Item: Cc1ccc(O)c(C)c1NC(=O)c1cnc(Nc2cccc(N3CCC(F)(F)CC3)n2)s1
Result: W (10-<100 fold)

Ask: Give its PKMYT1 vs. WEE1 selectivity value. Item: Cc1ccc(O)c(C)c1NC(=O)c1cnc(Nc2ccn(CC(=O)N3CCNC(=O)C3)n2)s1
Result: X (100-<1000 fold)
